Several reports have described Ki for Hepatocyte growth factor receptor (Homo sapiens); a selection of those results is presented here.

- COMPOUND_STRUCTURE_STRING: "Cc1cccc(C)c1-c1cnc2c(-c3ccccn3)c(N)nn2c1"
  TARGET_UNDER_TEST: "Hepatocyte growth factor receptor (Homo sapiens)"
  Ki: "500 to 5000 nM"
- COMPOUND_STRUCTURE_STRING: "Nc1ncc(-c2ccccc2F)cc1-c1nnnn1-c1cccc(F)c1F"
  TARGET_UNDER_TEST: "Hepatocyte growth factor receptor (Homo sapiens)"
  Ki: "≤ 100 nM"
- COMPOUND_STRUCTURE_STRING: "O=C(c1nc(-c2oncc2-c2cccc(F)c2F)c[nH]1)N1CC=CC1"
  TARGET_UNDER_TEST: "Hepatocyte growth factor receptor (Homo sapiens)"
  Ki: "< 1000 nM"
- COMPOUND_STRUCTURE_STRING: "CC(=O)c1cccc(-c2cnc(N)c(-c3nnnn3-c3cccc(F)c3F)c2)c1"
  TARGET_UNDER_TEST: "Hepatocyte growth factor receptor (Homo sapiens)"
  Ki: "≤ 100 nM"
- COMPOUND_STRUCTURE_STRING: "CN(C)c1ccc(-c2cnc(N)c(-c3nnnn3-c3cccc(F)c3F)c2)cc1"
  TARGET_UNDER_TEST: "Hepatocyte growth factor receptor (Homo sapiens)"
  Ki: "≤ 100 nM"
- COMPOUND_STRUCTURE_STRING: "Cc1nnc(-c2cc(-c3ccc(CN(C)C)cc3)cnc2N)n1-c1cccc(F)c1Cl"
  TARGET_UNDER_TEST: "Hepatocyte growth factor receptor (Homo sapiens)"
  Ki: "100 to 1000 nM"
- COMPOUND_STRUCTURE_STRING: "Nc1ncc(-c2ccc(NC(=O)Nc3cccs3)cc2)cc1-c1nnnn1-c1cccc(F)c1F"
  TARGET_UNDER_TEST: "Hepatocyte growth factor receptor (Homo sapiens)"
  Ki: "100 to 1000 nM"
- COMPOUND_STRUCTURE_STRING: "CCc1nn(C)cc1-c1nn2c([C@@H](C)c3ccc4ncccc4c3)nnc2s1"
  TARGET_UNDER_TEST: "Hepatocyte growth factor receptor (Homo sapiens)"
  Ki: "5 nM"
- COMPOUND_STRUCTURE_STRING: "CN(C)Cc1ccc(-c2cnc(N)c(-c3nnnn3-c3cccc(F)c3F)n2)cc1"
  TARGET_UNDER_TEST: "Hepatocyte growth factor receptor (Homo sapiens)"
  Ki: "≤ 100 nM"

* * *

pKi: −log10 of the molar value.
Several reports have described pKi for Hepatocyte growth factor receptor (Homo sapiens, UniProt P08581); a selection of those results is presented here.
VALUE_TYPE: pKi

- COMPOUND: "Nc1ncc(-c2cnn([C@@H]3CCOC3)c2)cc1-c1nnnn1-c1cccc(Cl)c1F"
  VALUE_TYPE: "pKi"
  EXPERIMENTAL_VALUE: "≥ 7.00"
- COMPOUND: "Nc1nn2cc(-c3ccc(N4CCC(N)CC4)nc3)cnc2c1-c1ccccn1"
  VALUE_TYPE: "pKi"
  EXPERIMENTAL_VALUE: "> 6.30"
- COMPOUND: "Nc1ncc(-c2ccc3ncccc3c2)cc1-c1nnnn1-c1cccc(F)c1F"
  VALUE_TYPE: "pKi"
  EXPERIMENTAL_VALUE: "≥ 7.00"
- COMPOUND: "Cn1cc(-c2cccc(Cl)c2Cl)c(-c2cc(-c3cnn(C4CCNCC4)c3)cnc2N)n1"
  VALUE_TYPE: "pKi"
  EXPERIMENTAL_VALUE: "≥ 7.00"
- COMPOUND: "Cc1cnc2c(-c3cc(N[C@@H]4CCC[C@H]4OCc4ccccc4)ncn3)c(N)nn2c1"
  VALUE_TYPE: "pKi"
  EXPERIMENTAL_VALUE: "> 6.30"
- COMPOUND: "Nc1ncc(-c2cccc([N+](=O)[O-])c2)cc1-c1nnnn1-c1cccc(F)c1F"
  VALUE_TYPE: "pKi"
  EXPERIMENTAL_VALUE: "≥ 7.00"
- COMPOUND: "Nc1ncc(-c2ccc(F)nc2)cc1-c1nnnn1-c1cccc(F)c1F"
  VALUE_TYPE: "pKi"
  EXPERIMENTAL_VALUE: "6.00 to 7.00"
- COMPOUND: "Nc1ncc(-c2cnn(CCN3CCCC3)c2)cc1-c1nc2cnccc2n1-c1cccc(F)c1F"
  VALUE_TYPE: "pKi"
  EXPERIMENTAL_VALUE: "≥ 7.00"
- COMPOUND: "Cc1cnc2c(-c3cc(NCC4CC4)ncn3)c(N)nn2c1"
  VALUE_TYPE: "pKi"
  EXPERIMENTAL_VALUE: "> 6.30"
- COMPOUND: "COC(=O)C1CCN(c2ncccc2-c2cnc3c(-c4ccccn4)c(N)nn3c2)CC1"
  VALUE_TYPE: "pKi"
  EXPERIMENTAL_VALUE: "5.30 to 6.30"
- COMPOUND: "Cc1nn(C)cc1-c1nn2c([C@@H](C)c3ccc4ncccc4c3)nnc2s1"
  VALUE_TYPE: "pKi"
  EXPERIMENTAL_VALUE: 7.82
- COMPOUND: "Nc1ncc(-c2ccc3c(c2)NC(=O)C3)cc1-c1nnnn1-c1cccc(F)c1F"
  VALUE_TYPE: "pKi"
  EXPERIMENTAL_VALUE: "≥ 7.00"
- COMPOUND: "Cc1ccc(Cl)cc1-n1nnnc1-c1cc(-c2ccc(CN3CCCC3)cc2)cnc1N"
  VALUE_TYPE: "pKi"
  EXPERIMENTAL_VALUE: "6.00 to 7.00"
- COMPOUND: "CN(C)Cc1cc(Cl)nc(-c2cnc3[nH]cc(-c4oncc4-c4cccc(F)c4F)c3c2)c1"
  VALUE_TYPE: "pKi"
  EXPERIMENTAL_VALUE: "> 6.70"
- COMPOUND: "CN(C)c1ccc(-c2cnc3[nH]cc(-c4nncn4-c4cccc(F)c4F)c3c2)cc1N"
  VALUE_TYPE: "pKi"
  EXPERIMENTAL_VALUE: "> 6.70"
- COMPOUND: "Nc1ncc(-c2cnn(CC3CCNCC3)c2)cc1-c1nnnn1-c1cccc(F)c1F"
  VALUE_TYPE: "pKi"
  EXPERIMENTAL_VALUE: "≥ 7.00"
- COMPOUND: "Nc1[nH]c2ncccc2c1-c1oncc1-c1cccc(F)c1F"
  VALUE_TYPE: "pKi"
  EXPERIMENTAL_VALUE: "4.90 to 6.00"
- COMPOUND: "Nc1ncc(-c2cccc(N3CCNCC3)c2)cc1-c1nnnn1-c1cccc(F)c1F"
  VALUE_TYPE: "pKi"
  EXPERIMENTAL_VALUE: "≥ 7.00"
- COMPOUND: "COc1ccc(-c2cnc3c([N+](=O)[O-])c(N)nn3c2)cc1"
  VALUE_TYPE: "pKi"
  EXPERIMENTAL_VALUE: "5.30 to 6.30"
- COMPOUND: "Nc1ncc(-c2ccc3[nH]ncc3c2)cc1-c1nnnn1-c1cccc(F)c1F"
  VALUE_TYPE: "pKi"
  EXPERIMENTAL_VALUE: "≥ 7.00"
- COMPOUND: "Cc1cccc(-c2cnc(N)c(-c3nnnn3-c3cccc(F)c3F)c2)c1"
  VALUE_TYPE: "pKi"
  EXPERIMENTAL_VALUE: "≥ 7.00"
- COMPOUND: "N#CCC(=O)N1CCC(c2cnc3[nH]cc(-c4oncc4-c4cccc(F)c4F)c3c2)CC1"
  VALUE_TYPE: "pKi"
  EXPERIMENTAL_VALUE: "> 6.70"
- COMPOUND: "Nc1ncc(-c2ccc(CN3CCN(CCO)CC3)cc2)cc1-c1nnnn1-c1cccc(Cl)c1Cl"
  VALUE_TYPE: "pKi"
  EXPERIMENTAL_VALUE: "≥ 7.00"
- COMPOUND: "CC(=O)N1CCC(n2cc(-c3cnc(N)c(-c4nnnn4-c4cccc(Cl)c4F)c3)cn2)CC1"
  VALUE_TYPE: "pKi"
  EXPERIMENTAL_VALUE: "≥ 7.00"
- COMPOUND: "CC(C)C(=O)N1CC=C(c2cnc(N)c(-c3nnnn3-c3cccc(F)c3F)c2)CC1"
  VALUE_TYPE: "pKi"
  EXPERIMENTAL_VALUE: "≥ 7.00"
- COMPOUND: "Nc1ncc(-c2cnn([C@@H]3CCCNC3)c2)cc1-c1nnnn1-c1cccc(F)c1F"
  VALUE_TYPE: "pKi"
  EXPERIMENTAL_VALUE: "≥ 7.00"
- COMPOUND: "CCN(CC)CCCc1cnc2c(-c3ccccn3)c(N)nn2c1"
  VALUE_TYPE: "pKi"
  EXPERIMENTAL_VALUE: "> 6.30"
- COMPOUND: "COC(=O)Cn1ccc2c(-c3oncc3-c3cccc(F)c3F)c[nH]c2c1=O"
  VALUE_TYPE: "pKi"
  EXPERIMENTAL_VALUE: "4.90 to 6.00"
- COMPOUND: "CC(=O)Nc1ccc(-c2cnc(N)c(-c3nnnn3-c3cccc(F)c3C)c2)cc1"
  VALUE_TYPE: "pKi"
  EXPERIMENTAL_VALUE: "6.00 to 7.00"
- COMPOUND: "CC(=O)Nc1cc(-c2cnc(N)c(-c3nnnn3-c3cccc(F)c3F)c2)ccc1CN1CCCC1"
  VALUE_TYPE: "pKi"
  EXPERIMENTAL_VALUE: "≥ 7.00"
- COMPOUND: "Cc1cnc2c(-c3cc(N4CCCC(C(N)=O)C4)ncn3)c(N)nn2c1 (stereo not shown)"
  VALUE_TYPE: "pKi"
  EXPERIMENTAL_VALUE: "> 6.30"
- COMPOUND: "Cn1c(Nc2ccc(F)cc2)ncc(-c2ccc(Oc3ccnc(NC(=O)N4CCCC4)c3)cn2)c1=O"
  VALUE_TYPE: "pKi"
  EXPERIMENTAL_VALUE: 8.22
- COMPOUND: "C[C@H](c1ccc2ncccc2c1)n1nnc2ccn(-c3ccc(Cl)c(C(F)(F)F)c3)c(=O)c21"
  VALUE_TYPE: "pKi"
  EXPERIMENTAL_VALUE: 6.33
- COMPOUND: "C[C@@H](NC(=O)c1cc(-c2cnn(C)c2)cnc1N)c1nnc2sc(Nc3cccc(Cl)c3)nn12"
  VALUE_TYPE: "pKi"
  EXPERIMENTAL_VALUE: "5.60 to 6.60"
